# Run Parameters: in 1,4-dioxane, 332.05 K
Quantity Kind: solubility (mole fraction)

INSERT INTO results (molecule_smiles, assay_value) VALUES
  ('CC(=O)[C@@]12O[C@@H]1C[C@H]1[C@@H]3CCC4=CC(=O)CC[C@]4(C)[C@H]3[C@H](O)C[C@@]12C', 0.00845);

---

# Run Parameters: in isopropanol, 314.8 K
Quantity Kind: solubility (mole fraction)

INSERT INTO measurements (molecule_smiles, assay_value) VALUES
  ('CC(=O)[C@@]12O[C@@H]1C[C@H]1[C@@H]3CCC4=CC(=O)CC[C@]4(C)[C@H]3CC[C@@]12C', 0.00689);

---

# Run Parameters: in n-propanol, 324.85 K
Quantity Kind: solubility (mole fraction)

INSERT INTO assay_data (molecule_smiles, assay_value) VALUES
  ('CC(=O)[C@@]12O[C@@H]1C[C@H]1[C@@H]3CCC4=CC(=O)CC[C@]4(C)[C@H]3[C@H](O)C[C@@]12C', 0.00235);

---

# Run Parameters: in n-butanol, 336.45 K
Quantity Kind: solubility (mole fraction)

INSERT INTO assay_data (molecule_smiles, assay_value) VALUES
  ('CC(=O)[C@@]12O[C@@H]1C[C@H]1[C@@H]3CCC4=CC(=O)CC[C@]4(C)[C@H]3[C@H](O)C[C@@]12C', 0.00334);

---

# Run Parameters: in DMSO, 297.75 K
Quantity Kind: solubility (mole fraction)

INSERT INTO assay_data (molecule_smiles, quantity_kind, assay_value) VALUES
  ('CC(=O)[C@@]12O[C@@H]1C[C@H]1[C@@H]3CCC4=CC(=O)CC[C@]4(C)[C@H]3[C@H](O)C[C@@]12C', 'solubility (mole fraction)', 0.00423);

---

# Run Parameters: in n-butanol, 310.75 K
Quantity Kind: solubility (mole fraction)

INSERT INTO results (molecule_smiles, quantity_kind, assay_value) VALUES
  ('CC(=O)[C@@]12O[C@@H]1C[C@H]1[C@@H]3CCC4=CC(=O)CC[C@]4(C)[C@H]3[C@H](O)C[C@@]12C', 'solubility (mole fraction)', 0.00113);

---

# Run Parameters: in n-butanol, 314.25 K
Quantity Kind: solubility (mole fraction)

INSERT INTO results (molecule_smiles, quantity_kind, assay_value) VALUES
  ('CC(=O)[C@@]12O[C@@H]1C[C@H]1[C@@H]3CCC4=CC(=O)CC[C@]4(C)[C@H]3CC[C@@]12C', 'solubility (mole fraction)', 0.00765);

---

# Run Parameters: in isopropanol, 306.35 K
Quantity Kind: solubility (mole fraction)

INSERT INTO measurements (molecule_smiles, quantity_kind, assay_value) VALUES
  ('CC(=O)[C@@]12O[C@@H]1C[C@H]1[C@@H]3CCC4=CC(=O)CC[C@]4(C)[C@H]3CC[C@@]12C', 'solubility (mole fraction)', 0.00486);

---

# Run Parameters: in n-butanol, 328.05 K
Quantity Kind: solubility (mole fraction)

INSERT INTO measurements (molecule_smiles, quantity_kind, assay_value) VALUES
  ('CC(=O)[C@@]12O[C@@H]1C[C@H]1[C@@H]3CCC4=CC(=O)CC[C@]4(C)[C@H]3CC[C@@]12C', 'solubility (mole fraction)', 0.0134);

---

# Run Parameters: in isopropanol, 311.75 K
Quantity Kind: solubility (mole fraction)

INSERT INTO results (molecule_smiles, assay_value) VALUES
  ('CC(=O)[C@@]12O[C@@H]1C[C@H]1[C@@H]3CCC4=CC(=O)CC[C@]4(C)[C@H]3CC[C@@]12C', 0.00598);

---

# Run Parameters: in n-propanol, 316.25 K
Quantity Kind: solubility (mole fraction)

INSERT INTO measurements (molecule_smiles, quantity_kind, assay_value) VALUES
  ('CC(=O)[C@@]12O[C@@H]1C[C@H]1[C@@H]3CCC4=CC(=O)CC[C@]4(C)[C@H]3CC[C@@]12C', 'solubility (mole fraction)', 0.00769);

---

# Run Parameters: in n-butanol, 331.65 K
Quantity Kind: solubility (mole fraction)

INSERT INTO assay_data (molecule_smiles, assay_value) VALUES
  ('CC(=O)[C@@]12O[C@@H]1C[C@H]1[C@@H]3CCC4=CC(=O)CC[C@]4(C)[C@H]3[C@H](O)C[C@@]12C', 0.00268);

---

# Run Parameters: in n-butanol, 303.9 K
Quantity Kind: solubility (mole fraction)

INSERT INTO measurements (molecule_smiles, quantity_kind, assay_value) VALUES
  ('CC(=O)[C@@]12O[C@@H]1C[C@H]1[C@@H]3CCC4=CC(=O)CC[C@]4(C)[C@H]3CC[C@@]12C', 'solubility (mole fraction)', 0.00473);

---

# Run Parameters: in isopropanol, 337.45 K
Quantity Kind: solubility (mole fraction)

INSERT INTO results (molecule_smiles, assay_value) VALUES
  ('CC(=O)[C@@]12O[C@@H]1C[C@H]1[C@@H]3CCC4=CC(=O)CC[C@]4(C)[C@H]3CC[C@@]12C', 0.0177);

---

# Run Parameters: in n-butanol, 306.75 K
Quantity Kind: solubility (mole fraction)

INSERT INTO measurements (molecule_smiles, assay_value) VALUES
  ('CC(=O)[C@@]12O[C@@H]1C[C@H]1[C@@H]3CCC4=CC(=O)CC[C@]4(C)[C@H]3CC[C@@]12C', 0.00543);

---

# Run Parameters: in n-propanol, 312.7 K
Quantity Kind: solubility (mole fraction)

INSERT INTO measurements (molecule_smiles, quantity_kind, assay_value) VALUES
  ('CC(=O)[C@@]12O[C@@H]1C[C@H]1[C@@H]3CCC4=CC(=O)CC[C@]4(C)[C@H]3[C@H](O)C[C@@]12C', 'solubility (mole fraction)', 0.00142);

---

# Run Parameters: in n-butanol, 343.5 K
Quantity Kind: solubility (mole fraction)

INSERT INTO assay_data (molecule_smiles, assay_value) VALUES
  ('CC(=O)[C@@]12O[C@@H]1C[C@H]1[C@@H]3CCC4=CC(=O)CC[C@]4(C)[C@H]3CC[C@@]12C', 0.0244);

---

# Run Parameters: in 1,4-dioxane, 310.55 K
Quantity Kind: solubility (mole fraction)

INSERT INTO results (molecule_smiles, quantity_kind, assay_value) VALUES
  ('CC(=O)[C@@]12O[C@@H]1C[C@H]1[C@@H]3CCC4=CC(=O)CC[C@]4(C)[C@H]3[C@H](O)C[C@@]12C', 'solubility (mole fraction)', 0.00447);

---

# Run Parameters: in n-propanol, 336.85 K
Quantity Kind: solubility (mole fraction)

INSERT INTO assay_data (molecule_smiles, quantity_kind, assay_value) VALUES
  ('CC(=O)[C@@]12O[C@@H]1C[C@H]1[C@@H]3CCC4=CC(=O)CC[C@]4(C)[C@H]3[C@H](O)C[C@@]12C', 'solubility (mole fraction)', 0.00382);

---

# Run Parameters: in isopropanol, 317.85 K
Quantity Kind: solubility (mole fraction)

INSERT INTO assay_data (molecule_smiles, assay_value) VALUES
  ('CC(=O)[C@@]12O[C@@H]1C[C@H]1[C@@H]3CCC4=CC(=O)CC[C@]4(C)[C@H]3CC[C@@]12C', 0.00752);

---

# Run Parameters: in 1,4-dioxane, 328.55 K
Quantity Kind: solubility (mole fraction)

INSERT INTO measurements (molecule_smiles, quantity_kind, assay_value) VALUES
  ('CC(=O)[C@@]12O[C@@H]1C[C@H]1[C@@H]3CCC4=CC(=O)CC[C@]4(C)[C@H]3[C@H](O)C[C@@]12C', 'solubility (mole fraction)', 0.00765);

---

# Run Parameters: in n-butanol, 300.85 K
Quantity Kind: solubility (mole fraction)

INSERT INTO measurements (molecule_smiles, assay_value) VALUES
  ('CC(=O)[C@@]12O[C@@H]1C[C@H]1[C@@H]3CCC4=CC(=O)CC[C@]4(C)[C@H]3CC[C@@]12C', 0.00412);

---

# Run Parameters: in isopropanol, 312.65 K
Quantity Kind: solubility (mole fraction)

INSERT INTO assay_data (molecule_smiles, assay_value) VALUES
  ('CC(=O)[C@@]12O[C@@H]1C[C@H]1[C@@H]3CCC4=CC(=O)CC[C@]4(C)[C@H]3[C@H](O)C[C@@]12C', 0.00126);

---

# Run Parameters: in n-propanol, 335.25 K
Quantity Kind: solubility (mole fraction)

INSERT INTO results (molecule_smiles, assay_value) VALUES
  ('CC(=O)[C@@]12O[C@@H]1C[C@H]1[C@@H]3CCC4=CC(=O)CC[C@]4(C)[C@H]3CC[C@@]12C', 0.0165);

---

# Run Parameters: in DMSO, 315.15 K
Quantity Kind: solubility (mole fraction)

INSERT INTO results (molecule_smiles, assay_value) VALUES
  ('CC(=O)[C@@]12O[C@@H]1C[C@H]1[C@@H]3CCC4=CC(=O)CC[C@]4(C)[C@H]3[C@H](O)C[C@@]12C', 0.00843);
